- targetUnderTest: SARS-CoV-2 Spike RBD-His Tag, Sino Biological (SARS-CoV-2)
parameter: xmid (log10)
Answer field: number only, no words.

binder	parameter	measurement
vhh_tstrep_sars2_pjl1_L_135 (VHH) VHH: QVQLQESGGGLVQAGGSLRLSCAASGRTFSEYAMGWFRQAPGKEREFVATISWSGGATYHTDSVKGRFTISRDNAKNTVYLQMNSLKPDDTAVYYCAAAGLWTVVSEWDYDYDYWGQGTQVTVSS	xmid (log10)	-1.65
vhh_tstrep_sars2_pjl1_L_123 (VHH) VHH: QVQLQESGGGLVQAGGSLRLSCAASGRTFSEYAMGWFRQAPGKEREFVATISWIGGATYHTDSVKGRFTISRDNAKNTVYLQMNSLKPDDTAVYYCAAAGLGTVVSEWDYDYDYWGQGTQVTVSS	xmid (log10)	0.157
vhh_tstrep_sars2_pjl1_L_133 (VHH) VHH: QVQLQESGGGLVQAGGSLRLSCAASGRTFSEYAMGWFRQAPGKEREFVATISWSGGATYHTDSVKGRFTISRDNAKNTVYLQMNSLKPDDTAVYYCAAAGLGTVVSEWDYDYDSWGQGTQVTVSS	xmid (log10)	-1.7
vhh_tstrep_sars2_pjl1_L_132 (VHH) VHH: QVQLQESGGGLVQAGGSLRLSCAASGRTFSEYAMGWFRQAPGKEREFVATISWGGGATYHTDSVKGRFTISRDNAKNTVYLQMNSLKPDDTAVYYCAAAGLGTVVSEWDYDYDYWGQGTQVTVSS	xmid (log10)	-0.157

# input for lookup
Exercise: Item vhh_tstrep_sars2_pjl1_L_137 (VHH) VHH: QVQLQESGGGLVQAGGSLRLSCAASGRTFSEYAMGWFRQAPGKEREFVATISWSGGATYHTDSVKGRFTISRDNAKNTVYLQMNSLKPDDTAVYYCAAAGLGTVVSAWDYDYDYWGQGTQVTVSS has what recorded xmid (log10)?
Key: -1.3
